System: HeLa
Experiment: Growth inhibition of human HeLa cells by MTT assay
Format: cell-based
Conditions: hela
readout_name: GI90 (µg/mL)
Numbers only, in µg/mL.

Task item: Assign GI90 to the following record: Cc1nc(C)c(-c2nn(-c3ccc(F)cc3)cc2C2CC(c3c(O)cc(C)c(Cl)c3C)=NN2)s1 (stereo not drawn)
Reply: 46.87

Please examine the following record next.
Task item: Please give the documented GI90 of Cc1nc(C)c(-c2nn(-c3ccc(F)cc3)cc2-c2cc(=O)c3cc(Cl)c(C)cc3o2)s1
Reply: 53.48

* * *

Please respond with reported GI90 for every item in the list.
Tested on: PANC-1
Assay: Growth inhibition of human PANC1 cells by MTT assay
Assay type: cell-based
Details: panc-1

Guide cases for GI90, answers given:
Task item: Kindly indicate its recorded GI90. Item: Cc1nc(C)c(-c2nn(-c3ccc(F)cc3)cc2C2CC(c3cc(Cl)ccc3O)=NN2)s1 (stereo not given)
Reply: > 250 µg/mL

Task item: Consider the compound CO[C@H]1/C=C/O[C@@]2(C)Oc3c(C)c(O)c4c(O)c(c(/C=N/N5CCN(C)CC5)c(O)c4c3C2=O)NC(=O)/C(C)=C\C=C\[C@H](C)[C@H](O)[C@@H](C)[C@@H](O)[C@@H](C)[C@H](OC(C)=O)[C@@H]1C and give its recorded GI90.
Reply: > 100 µg/mL

Task item: Provide only the value of recorded GI90 for Cc1nc(C)c(-c2nn(-c3ccc(F)cc3)cc2/C=C/C(=O)c2cc(Br)ccc2O)s1
Reply: > 250 µg/mL

Task item: Quickly give me recorded GI90 for Cc1nc(C)c(-c2nn(-c3ccc(F)cc3)cc2C2CC(c3cc(Cl)c(C)cc3O)=NN2)s1 (stereo not given)
Reply: > 250 µg/mL

Kindly consider the entry below.
Task item: Query GI90 for Cc1nc(C)c(-c2nn(-c3ccc(F)cc3)cc2/C=C/C(=O)c2cc(Cl)cc(Cl)c2O)s1
Reply: > 250 µg/mL
